molecular target: 2242 CXCR2/CXCR4 chimera; experiment: flow cytometry, scFv-Fc on transfected 293T cells, FITC anti-human IgG
measure.name: reactivity (MFI of chimeric receptor/MFI of wild type CXCR4 x 100%)
All answers are understood in %, so give the number only.

Query :: Would you mind telling me what reactivity (MFI of chimeric receptor/MFI of wild type CXCR4 x 100%) value was observed for 2N-Fc (Fc fusion, part only; not given: linker and human IgG1 hinge-Fc, not shown: another chain or arm of the molecule; a dimerising Fc or GST; small tags and cut ends) VH: EVQLVESGGGVVQPGRSLRLSCAASGFTFSSYGMHWVRQAPGKGLEWVAVISYDGSNKYYADSVKGRFTISRDNSKNTLYLQVSSLRAEDTAVYYCVRDLVAAAGTAFDIWGQGTTVTVSS VL: QPVLTQPRSVSGSPGQSVTISCTGTISDVGGHNFVSWYQQNPGKAPKLIIFEVTKRPAGVPDRFSGSKSGNTASLTVSGLQAEDEGEYYCSSYGGSNDVIFGGGTKLSVL ?
Result :: 1.2
